- testedOn: Human α2δ-1 subunit of Cav2.2 calcium channel (Homo sapiens, UniProt P54289)
- Sequence (P54289 25-1103): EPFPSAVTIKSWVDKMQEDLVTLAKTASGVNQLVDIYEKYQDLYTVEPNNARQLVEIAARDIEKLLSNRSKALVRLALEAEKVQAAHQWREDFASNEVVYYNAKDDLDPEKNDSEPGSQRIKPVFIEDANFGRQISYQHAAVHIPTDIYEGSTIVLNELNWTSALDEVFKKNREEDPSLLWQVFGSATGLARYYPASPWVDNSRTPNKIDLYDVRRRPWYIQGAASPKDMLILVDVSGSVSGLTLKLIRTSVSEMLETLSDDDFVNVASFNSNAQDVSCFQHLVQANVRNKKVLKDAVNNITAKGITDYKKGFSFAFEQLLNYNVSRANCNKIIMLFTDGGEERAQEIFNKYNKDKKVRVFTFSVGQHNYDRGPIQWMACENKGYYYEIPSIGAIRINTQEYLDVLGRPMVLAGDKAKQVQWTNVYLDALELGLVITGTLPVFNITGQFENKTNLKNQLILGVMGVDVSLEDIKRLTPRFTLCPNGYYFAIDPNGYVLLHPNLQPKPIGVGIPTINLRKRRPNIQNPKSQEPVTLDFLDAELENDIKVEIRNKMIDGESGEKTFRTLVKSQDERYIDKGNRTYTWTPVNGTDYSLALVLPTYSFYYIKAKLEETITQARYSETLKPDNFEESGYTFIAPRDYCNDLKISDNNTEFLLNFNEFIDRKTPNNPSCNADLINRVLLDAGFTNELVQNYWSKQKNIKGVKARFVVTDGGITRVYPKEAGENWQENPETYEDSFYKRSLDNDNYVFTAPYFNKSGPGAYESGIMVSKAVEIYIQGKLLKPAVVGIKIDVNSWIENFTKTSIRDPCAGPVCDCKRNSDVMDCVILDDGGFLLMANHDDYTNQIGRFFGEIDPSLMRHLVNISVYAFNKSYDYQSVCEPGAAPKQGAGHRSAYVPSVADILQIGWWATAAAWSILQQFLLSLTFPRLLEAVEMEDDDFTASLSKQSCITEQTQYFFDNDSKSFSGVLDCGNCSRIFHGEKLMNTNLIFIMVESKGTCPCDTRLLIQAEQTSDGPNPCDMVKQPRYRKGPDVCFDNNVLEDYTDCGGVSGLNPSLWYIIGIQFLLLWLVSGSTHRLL
- assayComment: Human α2δ-1 subunit of Cav2.2 calcium channel assay ([3H]-gabapentin binding)
- conditions: binding to the α2δ-1 subunit of voltage-gated calcium channels, expressed as Ki class; + also covers inhibition between 1% and 50%
quantity: Ki

>  <compound>
CCC[C@H](c1nc2ccc(C(F)(F)F)cc2c(=O)n1CC)N1CCN[C@@H](C)CC1

>  <Ki>
< 500 nM

$$$$
>  <compound>
CCC[C@H](c1nc2cc(OC)c(F)cc2c(=O)n1CC)N1CCCN(CC)CC1

>  <Ki>
< 500 nM

$$$$
>  <compound>
CCC[C@H](c1nc2cc(F)c(F)cc2c(=O)n1CC)N1CCCN[C@@H](C)C1

>  <Ki>
< 500 nM

$$$$

// query Would you mind telling me what Ki value was observed for CCC[C@@H](c1nc2cc(F)c(Br)cc2c(=O)n1CC)N1CCN(C)C[C@@H](C)C1 ?
// result 500 to 5000 nM

// query Ok, now CCCCn1c([C@@H](CCC)N2CCCN(CC)CC2)nc2ccc(F)cc2c1=O
// result < 500 nM

// query Ok, now CCCC(c1nc2ccc(Br)cc2c(=O)n1CCC)N1CCCN(C)CC1 (stereo not drawn)
// result < 500 nM

// query Ok, now CCC[C@@H](c1nc2ccc(F)cc2c(=O)n1CC)N1CCCN[C@H](C)C1
// result > 5000 nM

// query Ok, now CCCC(c1nc2ccc(Cl)cc2c(=O)n1CCC)N1CCCN(CC)CC1 (stereo not drawn)
// result < 500 nM

// query Ok, now CCCC(c1nc2cc(F)c(F)cc2c(=O)n1CC)N1CCCN(CC)CC1 (stereo not drawn)
// result < 500 nM

// query Ok, now CCCC(c1nc2ccc(Br)cc2c(=O)[nH]1)N1CCCN(C)CC1 (stereo not drawn)
// result > 5000 nM

// query Ok, now CCCC(c1nc2ccc(Br)cc2c(=O)n1C)N1CCCN(CC)CC1 (stereo not drawn)
// result > 5000 nM

// query Ok, now CCC[C@H](c1nc2ccc(Br)cc2c(=O)n1CC)N1CCN[C@H](C)CC1
// result 500 to 5000 nM

// query Ok, now CCCC(c1nc2ncc(Br)cc2c(=O)n1CC1CC1)N1CCCN(C)CC1 (stereo not drawn)
// result < 500 nM

// query Ok, now CCCC(c1nc2ccc(Br)c(F)c2c(=O)n1CC)N1CCCN(CC)CC1 (stereo not drawn)
// result 500 to 5000 nM

---

- testedOn: Human σ1 receptor (Homo sapiens)
- Construct: expressed in transfected cells; host or cells: HEK-293
- Sequence (Q99720 whole entry): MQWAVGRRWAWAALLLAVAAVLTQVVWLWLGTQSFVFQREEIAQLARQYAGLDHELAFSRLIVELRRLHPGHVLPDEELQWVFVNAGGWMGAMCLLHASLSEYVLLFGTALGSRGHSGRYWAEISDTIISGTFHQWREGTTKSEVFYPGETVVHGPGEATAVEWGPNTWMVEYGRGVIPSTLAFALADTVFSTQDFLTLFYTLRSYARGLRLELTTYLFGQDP
- assayComment: Human σ1 receptor radioligand assay ([3H](+)-pentazocine binding)
- conditions: binding to the σ1 receptor, expressed as Ki class; + also covers inhibition between 1% and 50%
pKi: −log10 of the molar value.
quantity: pKi

Worked cases, pKi given:
>  <molecule>
CCC[C@H](c1nc2ccc(Br)cc2c(=O)n1CC)N1CC[C@H](C)N(C)CC1 [Example 262]

>  <testedOn>
Human σ1 receptor (Homo sapiens)

>  <reportedMeasurement>
6.00 to 6.30

$$$$
>  <molecule>
CCC[C@@H](c1nc2ccc(Br)cc2c(=O)n1CC)N1CCN[C@@H](C)CC1 [Example 95]

>  <testedOn>
Human σ1 receptor (Homo sapiens)

>  <reportedMeasurement>
< 6.00

$$$$
>  <molecule>
CCCC(c1nc2cc(C)c(Br)cc2c(=O)n1CC)N1CCCN(C)CC1 (stereo not shown) [Example 39]

>  <testedOn>
Human σ1 receptor (Homo sapiens)

>  <reportedMeasurement>
6.00 to 6.30

$$$$

Pending molecule:
// query Short answer please: pKi, Human σ1 receptor (Homo sapiens), entry CCCCn1c([C@@H](CCC)N2CCCN(CC)CC2)nc2ccc(F)cc2c1=O [Example 225]
// result > 6.30

---

Ki listing for selected compounds.
- testedOn: Human α2δ-1 subunit of Cav2.2 calcium channel (Homo sapiens)
- assayComment: Human α2δ-1 subunit of Cav2.2 calcium channel assay ([3H]-gabapentin binding)
- conditions: binding to the α2δ-1 subunit of voltage-gated calcium channels, expressed as Ki class; + also covers inhibition between 1% and 50%

Worked cases, Ki given:
>  <compound>
CCCC(c1nc2ncc(Br)cc2c(=O)n1CC)N1CCCN(C)CC1 (stereo not drawn)

>  <Ki>
< 500 nM

$$$$
>  <compound>
CCCC(c1nc2ccc(Br)cc2c(=O)n1CCOC)N1CCCN(C)CC1 (stereo not drawn)

>  <Ki>
500 to 5000 nM

$$$$
>  <compound>
CCC[C@H](c1nc2cc(F)c(Cl)cc2c(=O)n1CC)N1CCNC[C@@H](C)C1

>  <Ki>
< 500 nM

$$$$
>  <compound>
CCC[C@H](c1nc2cc(Cl)c(Cl)cc2c(=O)n1CC)N1CCNC[C@H](C)C1

>  <Ki>
< 500 nM

$$$$
>  <compound>
CCCC(c1nc2ccc(Br)c(C)c2c(=O)n1CC)N1CCCNCC1 (stereo not drawn)

>  <Ki>
> 5000 nM

$$$$
>  <compound>
CCCC(c1nc2cc(Cl)c(Cl)cc2c(=O)n1CC)N1CCCNCC1 (stereo not drawn)

>  <Ki>
< 500 nM

$$$$

// query Would you mind telling me what Ki value was observed for CCC[C@H](c1nc2ccc(OC(F)(F)F)cc2c(=O)n1CC)N1CCCN(C)CC1 ?
// result < 500 nM

// query Ok, now CCC[C@H](c1nc2ccc(F)cc2c(=O)n1CC)N1CCN[C@H](C)CC1
// result < 500 nM

// query Ok, now CCCC(c1nc2cnc(OC)cc2c(=O)n1CC)N1CCCN(C)CC1 (stereo not drawn)
// result < 500 nM

---

- testedOn: Human α2δ-1 subunit of Cav2.2 calcium channel (Homo sapiens)
- assayComment: Human α2δ-1 subunit of Cav2.2 calcium channel assay ([3H]-gabapentin binding)
- conditions: binding to the α2δ-1 subunit of voltage-gated calcium channels, expressed as Ki class; + also covers inhibition between 1% and 50%
quantity: Ki

Worked cases, Ki given:
>  <compound>
CCCC(c1nc2ccc(Br)cc2c(=O)n1CC)N1CCNCC(C)(C)C1 (stereo not drawn)

>  <quantity>
Ki

>  <reportedMeasurement>
500 to 5000 nM

$$$$
>  <compound>
CCC[C@H](c1nc2ccc(Cl)cc2c(=O)n1C)N1CC[C@@H](C)N(C)CC1

>  <quantity>
Ki

>  <reportedMeasurement>
> 5000 nM

$$$$
>  <compound>
CCCC(c1nc2ccc(Br)c(F)c2c(=O)n1CC)N1CCCNCC1 (stereo not drawn)

>  <quantity>
Ki

>  <reportedMeasurement>
< 500 nM

$$$$
>  <compound>
CCCC(c1nc2c(F)cc(Br)cc2c(=O)n1CC)N1CCCN(C)CC1 (stereo not drawn)

>  <quantity>
Ki

>  <reportedMeasurement>
< 500 nM

$$$$

// query Would you mind telling me what Ki value was observed for CCC[C@H](c1nc2ccc(F)cc2c(=O)n1CC)N1CCCN[C@@H](C)C1 ?
// result < 500 nM

// query Ok, now CCCC(c1nc2c(C)cc(Br)cc2c(=O)n1CC)N1CCCN(CC)CC1 (stereo not drawn)
// result > 5000 nM

// query Ok, now CCCC(c1nc2cc(Br)c(F)cc2c(=O)n1CC)N1CCCN(C)CC1 (stereo not drawn)
// result < 500 nM

// query Ok, now CCCC(c1nc2cc(F)c(Br)cc2c(=O)n1C)N1CCCN(C)CC1 (stereo not drawn)
// result 500 to 5000 nM

// query Ok, now CCCC(c1nc2cc(F)c(Br)cc2c(=O)n1CCC)N1CCCN(C)CC1 (stereo not drawn)
// result < 500 nM

// query Ok, now CCC[C@@H](c1nc2ncc(Br)cc2c(=O)n1CC)N1CCN(C)C[C@@H](C)C1
// result > 5000 nM

// query Ok, now CC[C@H]1CCn2c(nc3ccc(Br)cc3c2=O)[C@@H]1N1CCCN(C)CC1
// result > 5000 nM

// query Ok, now CCCC(c1nc2ccc(C#N)cc2c(=O)n1CC)N1CCCN(C)CC1 (stereo not drawn)
// result < 500 nM

// query Ok, now CCC[C@H](c1nc2cc(F)c(Br)cc2c(=O)n1CC)N1CCN(C)C[C@H](C)C1
// result < 500 nM

// query Ok, now CCC[C@H](c1nc2ccc(Cl)cc2c(=O)n1CC)N1CCN(C)C[C@@H](C)C1
// result < 500 nM

// query Ok, now CCC[C@H](c1nc2ccc(C(F)(F)F)cc2c(=O)n1CC)N1CCN[C@H](C)CC1
// result 500 to 5000 nM

// query Ok, now CCCC(c1nc2ncc(F)cc2c(=O)n1CC1CC1)N1CCCN(C)CC1 (stereo not drawn)
// result < 500 nM

// query Ok, now CCC[C@H](c1nc2ccc(OC)cc2c(=O)n1CC)N1CCCN(C)CC1
// result < 500 nM

// query Ok, now CCC[C@H](c1nc2ccc(Br)cc2c(=O)n1CC)N1CCNC[C@H](O)C1
// result < 500 nM
